- System Tested: Fyn (UniProt P06241)
- Sequence (P06241 whole entry, looked up): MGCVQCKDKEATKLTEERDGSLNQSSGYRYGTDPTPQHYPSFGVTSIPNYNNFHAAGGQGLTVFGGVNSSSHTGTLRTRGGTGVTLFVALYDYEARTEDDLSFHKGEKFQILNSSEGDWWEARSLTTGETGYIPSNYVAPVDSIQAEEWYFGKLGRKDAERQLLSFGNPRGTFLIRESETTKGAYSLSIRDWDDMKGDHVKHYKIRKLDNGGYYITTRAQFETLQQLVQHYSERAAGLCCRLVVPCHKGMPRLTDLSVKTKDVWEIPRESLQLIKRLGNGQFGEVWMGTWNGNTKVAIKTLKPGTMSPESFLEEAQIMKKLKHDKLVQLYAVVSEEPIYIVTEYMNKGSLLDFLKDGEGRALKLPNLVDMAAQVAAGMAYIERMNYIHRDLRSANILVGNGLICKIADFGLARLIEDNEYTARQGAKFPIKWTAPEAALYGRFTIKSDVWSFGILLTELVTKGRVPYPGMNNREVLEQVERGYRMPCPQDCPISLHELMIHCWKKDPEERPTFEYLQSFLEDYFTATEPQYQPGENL
- Assay Name: phosphorylation enrichment, bacterial display (enrichment ratio); higher = better substrate or ligand; peptides without Tyr show the background
Measured Endpoint: phosphorylation enrichment
Answer with a bare number; do not write a unit.

Exercise: Entry DLGIQYKALKP [CTNNA1_Y177] , system Fyn (UniProt P06241): what phosphorylation enrichment was measured?
Key: 0.388

Exercise: Entry KNNDGYTDYAE [MCFD2_Y135_I136T] , system Fyn (UniProt P06241): what phosphorylation enrichment was measured?
Key: 0.463

Exercise: Entry SAQHHYESLQT [BIN1_Y157_R154Q] , system Fyn (UniProt P06241): what phosphorylation enrichment was measured?
Key: 0.418

Exercise: Entry IRTDAYVWAMT [RPE65_Y89_R91W] , system Fyn (UniProt P06241): what phosphorylation enrichment was measured?
Key: 0.446

====

- System Tested: EPHB1 (UniProt P54762)
- Sequence (P54762 whole entry, looked up): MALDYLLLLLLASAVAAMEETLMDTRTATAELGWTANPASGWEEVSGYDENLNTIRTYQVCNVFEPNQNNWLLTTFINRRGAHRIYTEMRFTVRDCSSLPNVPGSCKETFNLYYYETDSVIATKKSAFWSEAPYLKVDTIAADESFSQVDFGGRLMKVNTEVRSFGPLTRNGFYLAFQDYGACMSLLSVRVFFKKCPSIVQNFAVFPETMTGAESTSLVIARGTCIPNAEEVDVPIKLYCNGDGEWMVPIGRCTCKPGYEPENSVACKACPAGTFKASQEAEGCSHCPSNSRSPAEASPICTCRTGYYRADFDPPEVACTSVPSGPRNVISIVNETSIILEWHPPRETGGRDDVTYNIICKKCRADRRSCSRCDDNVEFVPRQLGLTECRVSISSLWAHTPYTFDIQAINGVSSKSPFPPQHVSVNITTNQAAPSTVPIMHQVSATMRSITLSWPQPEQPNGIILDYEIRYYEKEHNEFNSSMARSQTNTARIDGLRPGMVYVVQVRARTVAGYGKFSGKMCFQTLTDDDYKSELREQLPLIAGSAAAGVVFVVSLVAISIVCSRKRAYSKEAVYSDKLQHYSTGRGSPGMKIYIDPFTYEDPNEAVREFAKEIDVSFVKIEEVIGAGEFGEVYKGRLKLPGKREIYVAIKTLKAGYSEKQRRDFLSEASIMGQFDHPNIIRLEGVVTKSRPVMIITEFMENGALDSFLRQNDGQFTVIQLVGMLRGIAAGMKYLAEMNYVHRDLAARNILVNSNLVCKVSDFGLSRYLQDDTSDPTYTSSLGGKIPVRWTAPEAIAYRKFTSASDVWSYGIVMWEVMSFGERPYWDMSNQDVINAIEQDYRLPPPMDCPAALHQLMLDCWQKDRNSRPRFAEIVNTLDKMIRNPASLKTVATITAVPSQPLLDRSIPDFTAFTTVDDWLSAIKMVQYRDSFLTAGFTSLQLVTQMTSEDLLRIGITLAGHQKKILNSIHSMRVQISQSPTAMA
- Assay Name: phosphorylation enrichment, bacterial display (enrichment ratio); higher = better substrate or ligand; peptides without Tyr show the background
Measured Endpoint: phosphorylation enrichment

A selection of reference data follows.
| Sequence Entry | System Tested | phosphorylation enrichment |
| --- | --- | --- |
| ALWYIYSHTRS [ENG_Y614] | EPHB1 (UniProt P54762) | 0.679 |
| KLKNAYEESLE [MYH7_Y1488] | EPHB1 (UniProt P54762) | 0.491 |

Exercise: Fill in: phosphorylation enrichment of SVGGCYEQLFV [MC4R_Y41_D37V] is ___
Key: 1.02

Exercise: Fill in: phosphorylation enrichment of LDPMVYMNDTS [PTK2B_Y834_K838T] is ___
Key: 0.494

Exercise: Fill in: phosphorylation enrichment of MQMEEYRGRVE [BTNL2_Y91_W94R] is ___
Key: 0.421

Exercise: Fill in: phosphorylation enrichment of SVVVLYEPPEV [TP53_Y220_P219L] is ___
Key: 4.88

Exercise: Fill in: phosphorylation enrichment of WFKKFYDANYD [MAPRE2_Y158] is ___
Key: 0.477

Exercise: Fill in: phosphorylation enrichment of LEAFQYIGESQ [MSH2_Y856_E853A] is ___
Key: 0.711

====

- System Tested: FGFR1 (UniProt P11362)
- Sequence (P11362 whole entry, looked up): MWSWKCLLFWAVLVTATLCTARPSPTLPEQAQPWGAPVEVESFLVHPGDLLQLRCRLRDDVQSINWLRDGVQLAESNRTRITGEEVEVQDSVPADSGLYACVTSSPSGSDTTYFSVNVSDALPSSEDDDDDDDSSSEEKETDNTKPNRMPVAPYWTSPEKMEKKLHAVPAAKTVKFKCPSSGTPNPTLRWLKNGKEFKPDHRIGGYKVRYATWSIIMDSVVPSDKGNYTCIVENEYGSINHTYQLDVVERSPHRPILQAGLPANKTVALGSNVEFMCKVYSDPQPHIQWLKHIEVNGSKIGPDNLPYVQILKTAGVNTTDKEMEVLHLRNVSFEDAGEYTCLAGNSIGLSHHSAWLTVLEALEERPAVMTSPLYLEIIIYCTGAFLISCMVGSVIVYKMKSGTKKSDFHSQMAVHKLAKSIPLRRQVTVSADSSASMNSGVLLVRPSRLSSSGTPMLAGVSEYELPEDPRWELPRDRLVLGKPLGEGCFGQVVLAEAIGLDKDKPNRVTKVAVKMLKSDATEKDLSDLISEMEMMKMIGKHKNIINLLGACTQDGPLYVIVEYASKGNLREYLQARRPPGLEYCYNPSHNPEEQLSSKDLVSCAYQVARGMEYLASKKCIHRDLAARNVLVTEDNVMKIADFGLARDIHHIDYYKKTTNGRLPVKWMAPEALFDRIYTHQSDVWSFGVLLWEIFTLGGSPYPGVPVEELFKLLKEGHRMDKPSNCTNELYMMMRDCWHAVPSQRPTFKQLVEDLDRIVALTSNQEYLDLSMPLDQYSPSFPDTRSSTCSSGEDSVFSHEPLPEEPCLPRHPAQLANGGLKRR
- Assay Name: phosphorylation enrichment, bacterial display (enrichment ratio); higher = better substrate or ligand; peptides without Tyr show the background
Measured Endpoint: phosphorylation enrichment
Answer with a bare number; do not write a unit.

| Sequence Entry | Measured Endpoint | Observed Measurement |
| --- | --- | --- |
| SGPRRYTIATL [TTR_Y125_A129T] | phosphorylation enrichment | 0.432 |
| MWGSDYVHLSR [MAP3K4_Y582_Q584H] | phosphorylation enrichment | 3.31 |
| QEIATYRRLQE [KRT14_Y415_L419Q] | phosphorylation enrichment | 0.699 |
| AARVSYWLASG [DCHS1_Y1582_R1583W] | phosphorylation enrichment | 0.622 |
| LQTFRYHGLSM [PDHA1_Y289_H292L_YF] | phosphorylation enrichment | 0.835 |

Exercise: Fill in: phosphorylation enrichment of FSNPAYYVLEG [INPPL1_Y986_N982S] is ___
Key: 10.1

Exercise: Fill in: phosphorylation enrichment of SDGHEYIFVDR [PDGFRB_Y579_P584R_YF] is ___
Key: 1.04

Exercise: Fill in: phosphorylation enrichment of RPFVFYFSFLL [PTEN_Y177_R173P_YF] is ___
Key: 0.589

Exercise: Fill in: phosphorylation enrichment of PQGVGYPPQPQ [EP300_Y2219_Q2223P] is ___
Key: 0.695

Exercise: Fill in: phosphorylation enrichment of PVGVLYEVKVF [PTS_Y128_K129E_YF] is ___
Key: 1.02

Exercise: Fill in: phosphorylation enrichment of PLGVPYLDKPP [JMJD7_Y31_A28G] is ___
Key: 0.6

Exercise: Fill in: phosphorylation enrichment of AERKLYRNVML [ZNF569_Y33_Q29E] is ___
Key: 0.367

Exercise: Fill in: phosphorylation enrichment of RLNAIYQNNLT [GSR_Y158] is ___
Key: 0.502

Exercise: Fill in: phosphorylation enrichment of FFRKFCNKSED [RYR1_Y4864_Y4864C] is ___
Key: 0.49

Exercise: Fill in: phosphorylation enrichment of RVNSAYQDKVS [ACAN_Y100] is ___
Key: 0.513

Exercise: Fill in: phosphorylation enrichment of ADRNHYRRYPR [YBX1_Y145] is ___
Key: 0.527

====

- System Tested: EPHB2 (UniProt P29323)
- Sequence (P29323 whole entry, looked up): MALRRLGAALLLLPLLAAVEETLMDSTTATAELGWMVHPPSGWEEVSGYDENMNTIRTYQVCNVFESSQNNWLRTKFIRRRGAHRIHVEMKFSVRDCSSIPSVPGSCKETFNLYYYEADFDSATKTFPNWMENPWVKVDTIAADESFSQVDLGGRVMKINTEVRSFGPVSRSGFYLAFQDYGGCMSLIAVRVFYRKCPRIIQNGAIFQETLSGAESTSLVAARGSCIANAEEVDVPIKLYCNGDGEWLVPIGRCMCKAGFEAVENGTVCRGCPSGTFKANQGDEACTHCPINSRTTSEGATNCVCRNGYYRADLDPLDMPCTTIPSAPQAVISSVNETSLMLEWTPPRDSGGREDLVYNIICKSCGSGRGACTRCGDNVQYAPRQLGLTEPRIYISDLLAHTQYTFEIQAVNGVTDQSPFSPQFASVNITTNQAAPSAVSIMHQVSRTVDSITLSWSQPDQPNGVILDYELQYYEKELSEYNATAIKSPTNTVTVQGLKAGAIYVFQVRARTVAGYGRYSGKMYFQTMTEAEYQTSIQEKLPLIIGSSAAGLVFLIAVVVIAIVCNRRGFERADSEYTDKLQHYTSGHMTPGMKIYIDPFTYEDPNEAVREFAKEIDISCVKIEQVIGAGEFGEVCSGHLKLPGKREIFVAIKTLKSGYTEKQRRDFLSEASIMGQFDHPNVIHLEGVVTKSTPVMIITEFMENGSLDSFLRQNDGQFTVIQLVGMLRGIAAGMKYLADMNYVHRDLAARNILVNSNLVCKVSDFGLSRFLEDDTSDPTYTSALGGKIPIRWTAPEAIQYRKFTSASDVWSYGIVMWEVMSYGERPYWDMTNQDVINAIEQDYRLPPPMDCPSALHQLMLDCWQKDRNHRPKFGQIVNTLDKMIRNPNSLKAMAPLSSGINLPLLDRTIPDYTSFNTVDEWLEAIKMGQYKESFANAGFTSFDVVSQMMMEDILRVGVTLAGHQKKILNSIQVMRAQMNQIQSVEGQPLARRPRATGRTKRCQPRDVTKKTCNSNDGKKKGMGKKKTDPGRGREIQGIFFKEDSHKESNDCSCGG
- Assay Name: phosphorylation enrichment, bacterial display (enrichment ratio); higher = better substrate or ligand; peptides without Tyr show the background
Below, each entry is listed with its recorded phosphorylation enrichment.
Answer with a bare number; do not write a unit.

| Sequence Entry | System Tested | phosphorylation enrichment |
| --- | --- | --- |
| PFQGAYLEINK [MYO1B_Y967] | EPHB2 (UniProt P29323) | 0.577 |
| PPPPAYDDMAQ [TNK2_Y635_V638M] | EPHB2 (UniProt P29323) | 0.632 |
| VHLYAYDWISI [BEST1_Y227_G222V] | EPHB2 (UniProt P29323) | 5.88 |
| AESPEYVHMFT [FAM111A_Y511_YF] | EPHB2 (UniProt P29323) | 0.598 |
| GHNDVYISEHV [GRIN2A_Y1423] | EPHB2 (UniProt P29323) | 0.447 |

Exercise: Fill in: phosphorylation enrichment of LQLLGYRPVFS [CHST6_Y358_YF] is ___
Key: 0.793

Exercise: Fill in: phosphorylation enrichment of SVMVPYEPPEV [TP53_Y220_V217M] is ___
Key: 0.54

Exercise: Fill in: phosphorylation enrichment of NHQYDYTFDWT [CSNK1A1_Y294] is ___
Key: 0.767

====

- Test system: AncSZ
- Assay Name: phosphorylation enrichment, bacterial display (enrichment ratio); higher = better substrate or ligand; peptides without Tyr show the background
Record yes (1) whenever phosphorylation enrichment is at 1 or higher; record no (0) when lower.

Below, 6 sequences whose answers are already recorded.
| Sequence Entry | Group |
| --- | --- |
| VAFLYYKSIGP [ADGRL4_Y302_V300L] | yes (1) |
| REIHDYIKHLG [UNC13C_Y308_D304E] | no (0) |
| SSQILYKLEQS [THADA_Y701_V699I] | no (0) |
| HSKGIYFVQLE [MGAT4B_Y262_Q257H_YF] | yes (1) |
| SKEPFYVHCIK [MYO1D_Y586_R588H_YF] | yes (1) |
| PAIERYVVVCK [RHO_Y136_L131P] | yes (1) |

Continue with the sequence presented below.
Exercise: hey, is phosphorylation enrichment for this one >= 1? FLQTDYTSQVS [FRMPD1_Y846]
Key: yes (1)

====

- System Tested: c-Src SH2;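 note: peptide library displayed on the E. coli surface as eCPX fusions, selected cells deep-sequenced, score is each peptide's frequency after selection divided by its frequency in the input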
- Assay Name: SH2 binding enrichment of the phosphorylated peptide, bacterial display (enrichment ratio); higher = better substrate or ligand; peptides without Tyr show the background
Record Criterion met whenever SH2 binding enrichment is at 0.5 or higher; record Criterion not met when lower.

Below, 5 sequences whose answers are already recorded.
| Sequence Entry | Group |
| --- | --- |
| RRGLLYDSDEE [MCM2_Y137] | Criterion met |
| DLGIQYKALKP [CTNNA1_Y177] | Criterion not met |
| HYPDVYAWEQL [ALX3_Y181_R183W] | Criterion met |
| FSNPAYYVLEG [INPPL1_Y986_N982S] | Criterion met |
| SLEKSYELLDG [ACTB_Y240_P243L] | Criterion met |

Exercise: hey, is SH2 binding enrichment for this one >= 0.5? LLSVAYQNVVG [YWHAG_Y49_K50Q]
Key: Criterion met

Exercise: hey, is SH2 binding enrichment for this one >= 0.5? KVVNEYVTKGQ [MYH7_Y410_G407V]
Key: Criterion not met

Exercise: hey, is SH2 binding enrichment for this one >= 0.5? INITIYGKTFC [EFHC1_Y177_R182C]
Key: Criterion met

====

- System Tested: Fyn (UniProt P06241)
- Assay Name: phosphorylation enrichment, bacterial display (enrichment ratio); higher = better substrate or ligand; peptides without Tyr show the background
Measured Endpoint: phosphorylation enrichment
Answer with a bare number; do not write a unit.

Exercise: Fill in: phosphorylation enrichment of GQSKGYRPKLY [SIPA1L3_Y1376] is ___
Key: 0.45

Exercise: Fill in: phosphorylation enrichment of FSTDFYRVGGH [NTRK2_Y707_YF] is ___
Key: 0.493

Exercise: Fill in: phosphorylation enrichment of MPQNEYIELHR [NSA2_Y6] is ___
Key: 0.444

Exercise: Fill in: phosphorylation enrichment of QPAGNYSLSSV [ARFGAP3_Y473] is ___
Key: 0.424

Exercise: Fill in: phosphorylation enrichment of REVKAYGAGLL [TH_Y419_G414R] is ___
Key: 0.532

Exercise: Fill in: phosphorylation enrichment of QPDLLYDHIQP [TRRAP_Y862_F860L] is ___
Key: 13.5
